# tgt: Δ49N-hChoKα (Homo sapiens)
# Construct: cDNA fragment 362-1534, corresponding to aminoacids 50 457; GST (N, cleaved yes); PreScission Protease recognition site (N); made in house; host or cells: Escherichia coli BL21pLysS (DE3)
# Sequence (P35790 50-439 isoform P35790-2): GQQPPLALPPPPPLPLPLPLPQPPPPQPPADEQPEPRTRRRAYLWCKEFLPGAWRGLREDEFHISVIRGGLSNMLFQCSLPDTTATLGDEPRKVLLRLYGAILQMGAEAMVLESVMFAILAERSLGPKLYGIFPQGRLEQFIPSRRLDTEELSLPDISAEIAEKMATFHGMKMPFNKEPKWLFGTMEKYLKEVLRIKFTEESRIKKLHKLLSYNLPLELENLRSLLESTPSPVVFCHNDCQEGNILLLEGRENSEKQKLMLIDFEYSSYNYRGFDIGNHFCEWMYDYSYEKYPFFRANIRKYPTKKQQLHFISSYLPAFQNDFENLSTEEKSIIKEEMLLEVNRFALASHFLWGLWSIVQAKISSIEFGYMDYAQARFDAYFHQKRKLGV
# procedure-text: Biochemical kinase inhibition assay (Kinase-Glo luminescent) on Δ49N-hChoKα
# experimental-conditions: recombinant Δ49N-hChoKα 2.2 nM, ATP 5 μM, choline 5 μM, 60 min rt; read-out: ChoKα IC50
Record form. Attribute: IC50. Fill in for each entry.
Express your answer as a number followed by its unit.

Exercise: Look at this compound and give its reported IC50. CC1(OCc2csc(NC(=O)c3n[nH]c4c3C(C)(C)Cc3cnc(N)nc3-4)n2)CCN(C2CCCCCC2)CC1
Key: 20 nM

Exercise: Look at this compound and give its reported IC50. CN(C)[C@@H]1CCN(C(=O)Cc2csc(NC(=O)c3n[nH]c4c3C(C)(C)Cc3cnc(N)nc3-4)n2)C1
Key: 4 nM

Exercise: Look at this compound and give its reported IC50. CC1(C)Cc2cnc(N)nc2-c2[nH]nc(C(=O)Nc3nc(CC(=O)N4CCC(C(N)=O)CC4)cs3)c21
Key: 161 nM
